- assay-text: ATP-based viability of Huh7 replicon cells – cell-based, CellTiter-Glo luminescence, basal, 48 h, cytotoxicity control for HCV replication inhibitor project, primary screen (AID 1143);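 also: Huh7 hepatoma cells carrying a hepatitis C replication reporter with no stimulus; test concentration not given here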
- study-conditions: higher = more signal, called active from +8 up or from −8 down
Classification field: condition met = z-score at or over -0.5; condition not met = z-score under -0.5.

INSERT INTO measurements (compound, class_name) VALUES
  ('CCCCN1CC=CC23O[C@@H]4C=CCOC(=O)[C@@H]4[C@H]2C(=O)N(CCCCCCO)[C@@H]3C1=O (stereo partly drawn)', 'condition met'),
  ('COc1ccc([C@H]2OC[C@@H]3CCC(=O)N32)cc1', 'condition met'),
  ('NC(=O)N1C(=O)C2C(C1=O)C1C=C(CCCO)C2C(C2CC2)N1Cc1cc2c(cc1Br)OCO2 (stereo not drawn)', 'condition met'),
  ('[N-]=[N+]=NCc1ccccc1[C@H]1OC(c2ccc(OCCCO)cc2)=N[C@@]1(Cc1ccccc1)C(=O)N1CCCCC1', 'condition not met'),
  ('O=C(NCc1ccccc1)[C@@H]1c2ccccc2C(=O)N(C2Cc3ccccc3C2)[C@H]1c1ccc(CO)cc1', 'condition not met'),
  ('O=C(CS)NCCCCCNC(=O)[C@H]1C[C@H]2C(=O)NCC(=O)N2[C@H]1c1cccc(OCCO)c1', 'condition met'),
  ('CCOc1cc(C(O)C2C=CC3C(=O)N(c4ccccc4)C(=O)C3N2Nc2ccc(C(C)C)cc2)ccc1O (stereo not drawn)', 'condition not met'),
  ('CCOC(=O)C[C@H]1[C@H](OC(=O)c2cc3ccccc3oc2=O)[C@@H](NC(=O)CC(C)C)c2cc(OCCCO)ccc2N1C(=O)c1ccccc1', 'condition not met'),
  ('C=C(/C(=C/C[C@H](OC(C)=O)c1ccc(OCCO)cc1)c1cc(C(=O)OC)ccc1OC)C(C)C', 'condition not met'),
  ('CCCC[C@H]1C[C@@H]1[C@@H]1N(P(=O)(c2ccccc2)c2ccccc2)C[C@@](O)(c2ccccc2)CC12CC2', 'condition not met'),
  ('COCCOC(=O)N1C(=O)[C@@]2(c3cc(C#CCCO)ccc31)[C@H](c1ccc(OCCO)cc1)N1[C@H](c3ccccc3)[C@H](c3ccccc3)OC(=O)[C@H]1[C@@H]2C(N)=O', 'condition not met'),
  ('CN1C(=O)C2C=CC(C(O)c3ccccc3)N(N3CCCCC3)C2C1=O (stereo not drawn)', 'condition met'),
  ('O=C(NC1CC1)[C@@H]1c2ccccc2C(=O)N(C2Cc3ccccc3C2)[C@H]1c1ccc(CO)cc1', 'condition met');

Data provenance: PubChem BioAssay
